# System: THP-1 cells
# assay context: human
measurement name: CC50 (µM)
// units = µM; emit number, no label

> print(dat)
                                   molecule  measurement.name  numeric.result
1  COc1ccc(CN2CCN(C(c3ccc(F)cc3)c3ccc(F)cc3)CC2)c(OC)c1OC [Lomerizine]              CC50              50
2  COC(=O)C1=C(C)NC(C)=C(C(=O)OCCN(C)Cc2ccccc2)C1c1cccc([N+](=O)[O-])c1 (stereo not shown) [Nicardipine]              CC50              49
3  OCCN(CCO)c1nc(N2CCCCC2)c2nc(N(CCO)CCO)nc(N3CCCCC3)c2n1 [Dipyridamole]              CC50              41

We now examine a further molecule.
Specify reported CC50 for the molecule shown: O=C1CCc2ccc(OCCCCN3CCN(c4cccc(Cl)c4Cl)CC3)cc2N1 [Aripiprazole]
12

* * *

# pIC50 values compiled below
# Test system: B. ovis
# procedure details: microbe, parasite or virus in culture
# Type: cell-based, Brucella ovis
# assay context: Brucella ovis, THP-1, 48 h, read-out: IC50 for inhibiting intracellular growth of B. ovis
API: returns pIC50 as number; meaning -log10 of concentration in mol/L.

> print(dat)
                                   molecule  measurement.name  numeric.result
1  COCCOC(=O)C1=C(C)NC(C)=C(C(=O)OC/C=C/c2ccccc2)C1c1cccc([N+](=O)[O-])c1 (centres unmarked) [Cilnidipine]             pIC50            5.60

# context switch: different molecule, same pIC50
Please respond with reported pIC50 (system B. ovis) for COC(=O)C1=C(C)NC(C)=C(C(=O)OCCN(C)Cc2ccccc2)C1c1cccc([N+](=O)[O-])c1 (centres unmarked) [Nicardipine] .
5.64

Taken from paper PMC12306736.
